- assayed.system: T1, recombinant hPD-1 (construct not stated) (human, UniProt Q15116 25-167, limits assumed)
- T1 construct: also called huPD-1; Human PD1
- T1 sequence (Q15116 25-167 limits assumed): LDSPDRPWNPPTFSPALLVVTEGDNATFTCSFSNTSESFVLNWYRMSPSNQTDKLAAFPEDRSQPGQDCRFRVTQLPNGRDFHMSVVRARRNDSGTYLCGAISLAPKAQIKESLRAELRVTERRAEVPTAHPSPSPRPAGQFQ
- procedure.summary: ELISA
# Lookup of reported Max OD keyed by entry
Dear colleague, please return just the value in OD, with no unit written.

Field: example entries. Status: answers known.
{"binder": "XVT458-z2-m4 (antibody, V domains shown, IgG format; also called z2_XVT458m4) VH: QVQLVQSGAEVKKPGASVKVSCKASGYTFTNFYIHWVRQAPGQGLEWMGRIYPNYGITAYNQKFKDRVTMTVDTSTSTAYMELRSLRSDDTAVYYCARGYSYAMDYWGQGTTVTVSS VL: DIQMTQSPSSVSASVGDRVTITCSASQGISGDLNWYQQKPGKAPKLLIYHTSSRHSGVPSRFSGSGSGTDFTLTISSLQPEDFATYYCQGYSKDLLTFGGGTKLEIK", "Max OD (OD)": 3.3}
{"binder": "XVT458-z2-m5 (antibody, V domains shown, IgG format; also called z2_XVT458m5) VH: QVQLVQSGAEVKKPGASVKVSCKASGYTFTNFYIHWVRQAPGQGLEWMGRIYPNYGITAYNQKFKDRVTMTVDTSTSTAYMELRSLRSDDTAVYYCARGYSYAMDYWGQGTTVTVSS VL: DIQMTQSPSSVSASVGDRVTITCSASQGIYGDLNWYQQKPGKAPKLLIYHTSSRHSGVPSRFSGSGSGTDFTLTISSLQPEDFATYYCQAYSKDLLTFGGGTKLEIK", "Max OD (OD)": 3.42}
{"binder": "XVT458-z2-m6 (antibody, V domains shown, IgG format; also called z2_XVT458m6) VH: QVQLVQSGAEVKKPGASVKVSCKASGYTFTNFYIHWVRQAPGQGLEWMGSIYPNYGITAYNQKFKDRVTMTVDTSTSTAYMELRSLRSDDTAVYYCARGYSYAMDYWGQGTTVTVSS VL: DIQMTQSPSSVSASVGDRVTITCSASQGISGDLNWYQQKPGKAPKLLIYHTSQLHSDVPSRFSGSGSGTDFTLTISSLQPEDFATYYCQGYSKDLLTFGGGTKLEIK", "Max OD (OD)": 3.49}
{"binder": "XVT458-z2-m2 (antibody, V domains shown, IgG format; also called z2_XVT458m2) VH: QVQLVQSGAEVKKPGASVKVSCKASGYTFTNFYIHWVRQAPGQGLEWMGRIYPNYGFTAYNQKFKDRVTMTVDTSTSTAYMELRSLRSDDTAVYYCARGYSYAMDYWGQGTTVTVSS VL: DIQMTQSPSSVSASVGDRVTITCSASQGIYGDLNWYQQKPGKAPKLLIYHTSSLHSGVPSRFSGSGSGTDFTLTISSLQPEDFATYYCQAYSKDLLTFGGGTKLEIK", "Max OD (OD)": 3.34}
{"binder": "z2-XVT458 (antibody, IgG1, V domains shown, full hIgG1; also called XVT458-z2; GH + T071V) VH: QVQLVQSGAEVKKPGASVKVSCKASGYTFTNFYIHWVRQAPGQGLEWMGSIYPNYGDTAYNQKFKDRVTMTVDTSTSTAYMELRSLRSDDTAVYYCARGYSYAMDYWGQGTTVTVSS VL: DIQMTQSPSSVSASVGDRVTITCSASQGISGDLNWYQQKPGKAPKLLIYHTSSLHSGVPSRFSGSGSGTDFTLTISSLQPEDFATYYCQYYSKDLLTFGGGTKLEIK", "Max OD (OD)": 2.91}
{"binder": "XVT458-z2-m1 (antibody, V domains shown, IgG format; also called z2-XVT458-m1; z2_XVT458m1) VH: QVQLVQSGAEVKKPGASVKVSCKASGYTFTNFYIHWVRQAPGQGLEWMGSIYPNYGFTAYNQKFKDRVTMTVDTSTSTAYMELRSLRSDDTAVYYCARGYSYAMDYWGQGTTVTVSS VL: DIQMTQSPSSVSASVGDRVTITCSASQGIWGDLNWYQQKPGKAPKLLIYHTSQLHSDVPSRFSGSGSGTDFTLTISSLQPEDFATYYCQGYSKDLLTFGGGTKLEIK", "Max OD (OD)": 3.39}

Consider the additional binder presented here.
Tell me the measured Max OD of XVT458-z2-m3 (antibody, V domains shown, IgG format; also called z2_XVT458m3) VH: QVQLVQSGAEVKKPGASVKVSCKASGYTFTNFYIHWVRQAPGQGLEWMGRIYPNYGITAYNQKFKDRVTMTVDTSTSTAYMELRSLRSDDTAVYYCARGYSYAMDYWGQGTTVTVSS VL: DIQMTQSPSSVSASVGDRVTITCSASQGISGDLNWYQQKPGKAPKLLIYHTSQRHSDVPSRFSGSGSGTDFTLTISSLQPEDFATYYCQGYSKDLLTFGGGTKLEIK , please.
3.37
